Target: human NMUR2 (human, UniProt Q9GZQ4 1-415)
Sequence (Q9GZQ4 whole entry): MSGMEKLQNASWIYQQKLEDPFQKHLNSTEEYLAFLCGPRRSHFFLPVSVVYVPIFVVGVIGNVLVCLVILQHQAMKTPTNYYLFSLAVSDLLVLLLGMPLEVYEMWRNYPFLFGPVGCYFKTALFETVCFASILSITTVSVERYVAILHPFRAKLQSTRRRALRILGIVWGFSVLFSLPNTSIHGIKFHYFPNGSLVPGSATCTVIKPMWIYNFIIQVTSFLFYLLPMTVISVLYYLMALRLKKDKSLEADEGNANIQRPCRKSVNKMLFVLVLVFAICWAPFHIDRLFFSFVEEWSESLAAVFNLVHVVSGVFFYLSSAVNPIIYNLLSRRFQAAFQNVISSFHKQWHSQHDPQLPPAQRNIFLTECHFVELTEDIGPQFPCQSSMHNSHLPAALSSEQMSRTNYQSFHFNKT
Assay: cell-based or functional assay
Non-standard residues stand in square brackets, D forms with d. No end group written: not given here. hArg = N=C(N)NCCCC[C@H](N)C(=O)O
Observation Type: EC50 (nM)
Give the value in nM but do not write nM after it.

Look over these answered cases.
- Binder: "FWLFRARN-NH2 [neuromedin U receptor agonist L]"
  Unit Label: "nM"
  EC50: 6.2
- Binder: "FWLFRA[hArg]N-NH2 (N-terminus assumed; SMILES CC(C)C[C@H](NC(=O)[C@H](Cc1c[nH]c2ccccc12)NC(=O)[C@@H](N)Cc1ccccc1)C(=O)N[C@@H](Cc1ccccc1)C(=O)N[C@@H](CCCNC(=N)N)C(=O)N[C@@H](C)C(=O)N[C@@H](CCCCNC(=N)N)C(=O)N[C@@H](CC(N)=O)C(N)=O) [neuromedin U receptor agonist J]"
  Unit Label: "nM"
  EC50: 160
- Binder: "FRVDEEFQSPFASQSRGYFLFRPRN-NH2 (also called hNMU-25; native hNMU) [human NMU-25]"
  Unit Label: "nM"
  EC50: 1.5

INPUT: Please report EC50 for the following binder: FWLFRP[hArg]N-NH2 (N-terminus assumed; SMILES CC(C)C[C@H](NC(=O)[C@H](Cc1c[nH]c2ccccc12)NC(=O)[C@@H](N)Cc1ccccc1)C(=O)N[C@@H](Cc1ccccc1)C(=O)N[C@@H](CCCNC(=N)N)C(=O)N1CCC[C@H]1C(=O)N[C@@H](CCCCNC(=N)N)C(=O)N[C@@H](CC(N)=O)C(N)=O) [neuromedin U receptor agonist I]
OUTPUT: 10

INPUT: Name the recorded EC50 of the item FALFRPRN-NH2 [neuromedin U receptor agonist N] in your answer.
OUTPUT: 3.9
